- System: Escherichia coli
- protocol-text: Antibacterial activity against Escherichia coli JM83 harboring pHF022 containing aminoglycoside 2''-2a phosphotransferase N196D/D268N mutant by broth microdilution method
- Type: functional
observable: MIC (µg/mL)

INSERT INTO measurements (chemical_smiles, observable, experimental_result) VALUES
  ('CCN[C@@H]1C[C@H](N)[C@@H](O[C@H]2OC(CN)=CC[C@H]2N)[C@H](O)[C@H]1O[C@H]1OC[C@](C)(O)[C@H](NC)[C@H]1O', 'MIC', 8),
  ('NCC[C@H](O)C(=O)N[C@@H]1C[C@H](N)[C@@H](O[C@H]2O[C@H](CN)[C@@H](O)[C@H](O)[C@H]2O)[C@H](O)[C@H]1O[C@H]1O[C@H](CO)[C@@H](O)[C@H](N)[C@H]1O', 'MIC', 16),
  ('CN[C@@H]1[C@@H](O)[C@@H](O[C@@H]2[C@@H](O)[C@H](O[C@H]3OC(CN)=CC[C@H]3N)[C@@H](N)C[C@H]2N)OC[C@]1(C)O', 'MIC', 4),
  ('NC[C@H]1O[C@H](O[C@H]2[C@H](O)[C@@H](O[C@H]3O[C@H](CO)[C@@H](O)[C@H](N)[C@H]3O)[C@H](N)C[C@@H]2N)[C@H](N)[C@@H](O)[C@@H]1O', 'MIC', 64);
